# fluorescence ratio per entry
Assay: Cy5 fluorescence interference with SSB-bound oligo, artefact control for HCV NS3 helicase inhibitor project, biochemical, NIH Clinical Collection, E. coli SSB (AID 743268)
Active and inactive are the calls of the source. How the calls were made is not given here.

- Compound: "COc1ccc(Cl)cc1C(=O)NCCc1ccc(S(=O)(=O)NC(=O)NC2CCCCC2)cc1"
  fluorescence ratio: "0.97 (inactive)"
- Compound: "Cn1cnc([N+](=O)[O-])c1Sc1ncnc2nc[nH]c12"
  fluorescence ratio: "1.03 (inactive)"
- Compound: "NS(=O)(=O)c1cc2c(cc1Cl)NC=NS2(=O)=O"
  fluorescence ratio: "0.95 (inactive)"
- Compound: "Cc1c(OCC(F)(F)F)ccnc1CS(=O)c1nc2ccccc2[nH]1 (stereo not given)"
  fluorescence ratio: "0.95 (inactive)"
- Compound: "C=C(CC)C(=O)c1ccc(OCC(=O)O)c(Cl)c1Cl"
  fluorescence ratio: "2.96 (active)"
- Compound: "CC(COc1ccccc1)N(CCCl)Cc1ccccc1 (stereo not given)"
  fluorescence ratio: "1.06 (inactive)"
- Compound: "CN(C)C(=O)Oc1ccc[n+](C)c1"
  fluorescence ratio: "1.01 (inactive)"
- Compound: "O=C(CCCN1CC=C(n2c(=O)[nH]c3ccccc32)CC1)c1ccc(F)cc1"
  fluorescence ratio: "0.99 (inactive)"
- Compound: "CC(=O)[C@H]1CC[C@H]2[C@@H]3C[C@H](C)C4=CC(=O)CC[C@]4(C)[C@H]3[C@@H](O)C[C@]12C"
  fluorescence ratio: "0.93 (inactive)"
- Compound: "CC(=O)O[C@]1(C(C)=O)CC[C@H]2[C@@H]3C=C(C)C4=CC(=O)CC[C@]4(C)[C@H]3CC[C@@]21C"
  fluorescence ratio: "1.01 (inactive)"
